- target_of_assay: T1, SARS-CoV-2 full length spike protein (wild type), expressed on the surface of transiently transfected CHO … (SARS-CoV-2, UniProt P0DTC2 14-1273)
- T1 construct: also called SARS-CoV-2 spike (S) protein; Wild-Type SARS-CoV-2
- assay_info: flow cytometry, CHO cells with full-length WT SARS-CoV-2 spike
measured_metric: binding result

antibody 443 (antibody, V domains shown) VH: QMRLEESGPGLVKPSETLSLTCTVAGGSITSSDYFWGWLRQSPGKGLEWIASTYHGGSIQYHPALKSRVTISVDASKNQISLRLSSVTAADTAVYYCARDRGDDGPMGTYYFDHWGQGALVTVSS VL: QSVLTQPPSVSGAPGQSVTISCAGSSSNIGAGHDVHWYQQIPGTAPKLLICGNTNRPSGVPERFSGSRSGTSASLAITGLQAEDEAVYYCQSYDPSHVFFGTGTKLTVL = no binding
antibody 434 (antibody, V domains shown) VH: QVQLVQSGAEVKKPGASVQVSCKASGYTFSDYYIFWVRQAPGQGLEWMGCINPKSGGAIYAQRFQGRVTMTRDTSFNTAYMEMNRLGSDDTAVYYCVTRGPPDIAASGFAWHLDVWGQGTTVTVSS VL: DIVMTQSPLSLPVTPGEPASISCRSSQSLLSSNGYNYLEWYLQKPGQSPQLLMYLGSNRASGVPDRFSGSGSGTDFTLKINRVEAEDVGVYYCMQALQTPLTFGGGTKVEIK = no binding
antibody 474 (antibody, V domains shown) VH: EVQLVESGGGLVQPGGSLRLSCAASGFTFSSYWMHWVRQAPGKGLVWVSRINSDGSSTSYADSVKGRFTISRDNAKNTLYRQMNSLRAEDTAVYYCALGPLDIVGSYYYYGMDVWGQGTTVTVSS VL: NFMLTQPHSVSESPGKTVTISCTGSSGSIASNYVQWYQQRPGSAPTTVIYEDNQRPSGVPDRFSGSIDSSSNSASLTISGLKTEDEADYYCQSYDSSNQDVVFGGGTKLTVL = no binding
